Assay: MM1S cell viability effects, profiling panel, calcein-AM fluorescence, 48 h, basal (AID 1165);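 note: viability of MM1S multiple myeloma cells under basal unstimulated conditions; test concentration not given here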
Details: higher = more signal
PROPERTY MEASURED: z-score

Some solved cases for reference:
COMPOUND	z-score
COC(=O)C(CC#Cc1ccc2c(c1)[C@]1(C(=O)N2)[C@H](C(=O)Nc2nc3ccccc3s2)[C@H]2C(=O)O[C@H](c3ccccc3)[C@H](c3ccccc3)N2[C@@H]1c1ccc(OCCO)cc1)C(=O)OC	-0.82
Cc1ccc(S[C@]2(C(=O)NC(C)C)CC(=O)N(C(C)C)[C@@H]2c2ccc(CO)cc2I)cc1	-2.39
CC(=O)N1CC(C(O)C2C=CC3C(=O)NC(=O)C3N2Nc2ccc(Cl)cc2Cl)c2ccccc21 (stereo unspecified)	-0.452
COc1ccc(C(O)C2C=CC3C(=O)N(c4ccccc4)C(=O)C3N2Nc2ccccc2F)cc1 (stereo unspecified)	-0.808
COC(=O)[C@@]1(Cc2ccccc2)[C@H]2c3cc(C(=O)N4CCCC4)n(CCSCCO)c3C[C@H]2CN1C(=O)c1ccccc1	-0.451
C=C(COC)/C(=C/C[C@@H](OC(=O)c1ccncc1)c1ccccc1OCCO)c1cc(C(=O)OC)ccc1OC	-3.29
O=C(CS)NCCCCCNC(=O)[C@@H]1C[C@@H]2C(=O)N[C@@H](Cc3ccccc3)C(=O)N2[C@@H]1c1cccc(OCCO)c1	0.57
O=C(O)[C@@H]1C[C@@H]2C(=O)N3CCC[C@H]3C(=O)N2[C@@H]1c1cccc(OCCO)c1	-0.456

Take each entry in turn and give its z-score.
1. CCOC(=O)C1=CCC(c2ccco2)N(S(=O)(=O)c2ccc(C)cc2)C1 (stereo unspecified)
2. COc1ccc([Si](C)(C)[C@H]2[C@H](CC(=O)N3Cc4ccccc4C[C@H]3CO)O[C@@]3(C(=O)N(Cc4ccc(N5C(=O)c6cccc7cccc5c67)cc4)c4ccccc43)[C@@H]2C)cc1
3. COCCOC(=O)N1C(=O)[C@@]2(c3ccccc31)[C@H](c1ccccc1OCCO)N1[C@H](c3ccccc3)[C@H](c3ccccc3)OC(=O)[C@H]1[C@@H]2C(=O)N1CCCCCCC1
4. COc1cc2c(cc1O)C(c1cccs1)N(Cc1sc3ccccc3c1Cl)CC2 (stereo unspecified)
5. COc1ccc(NC(=O)O[C@H]2[C@@H]3OC(=O)[C@H](Cc4cccc(Br)c4)C/C=C/C[C@@H](Cc4cccc(Br)c4)C(=O)O[C@H]3[C@@H](OC)O[C@@H]2CO)cc1
6. C=C/C=C/[C@@H]1C(=C)CN([C@@H](Cc2ccccc2)C(=O)OC)[C@H]1[C@@H](O)Cc1ccccc1
7. CCOC(=O)C1=C[C@@H](c2ccccc2)N(S(=O)(=O)c2ccc(C)cc2)[C@H]1c1ccccc1

1: -2.93; 2: -0.769; 3: -2.51; 4: -3.27; 5: -1.14; 6: -3.04; 7: -1.14

---

Target: Neurogenic locus notch homolog protein 3 (Homo sapiens)
Assay: NOTCH3 binders on small-molecule microarray, primary screen, biochemical, 635/667 nm fluorescence (AID 1096)
Conditions: NOTCH3 binding, 635 nm fluorescence, higher = more signal
Would you mind labelling by composite z-score? At or over 1 is criterion met, under is criterion not met.

Below are worked cases with known answers.
COMPOUND	CLASSIFICATION
COCCOC(=O)N1C(=O)[C@@]2(c3cc(C#CCC(C(=O)OC)C(=O)OC)ccc31)[C@H](c1ccc(O)cc1)N1[C@H](c3ccccc3)[C@H](c3ccccc3)OC(=O)[C@H]1[C@@H]2C(=O)NC[C@H](O)c1ccccc1	criterion not met
CCc1cccc(NC(=O)O[C@H]2[C@H](OC(=O)Nc3ccccc3)[C@H](OC(=O)Nc3ccccc3)[C@@H](OC)O[C@@H]2CO)c1	criterion met
CC(=O)n1cc(C(O)C2C=CC3C(=O)N(c4ccccc4)C(=O)C3N2Nc2ccc(C(C)C)cc2)c2ccccc21 (centres undefined)	criterion met

Threshold query (composite z-score >= 1) on NCCCCCNC(=O)[C@H]1C[C@H]2C(=O)N[C@@H](Cc3ccccc3)C(=O)N2[C@H]1c1ccc(O)cc1 criterion not met

Continue with C=CCC(OC(C)=O)[C@@H]1[C@@H](N(Cc2ccc(-c3cccc(C(F)(F)F)c3)o2)C(=O)Cc2ccc(OC)cc2)c2cc(OCCCO)ccc2N1C(=O)Cc1ccc2ccccc2c1 (some centres undefined) criterion not met

Continue with Cc1ccc([C@H]2C(C(=O)O)=C[C@@H](C(C)(C)C)N2S(=O)(=O)c2ccc(C)cc2)cc1 criterion met

Continue with COCCOC(=O)N1C(=O)[C@@]2(c3cc(C#CC4(O)CCCCCC4)ccc31)[C@H](c1ccc(OCCO)cc1)N1[C@H](c3ccccc3)[C@H](c3ccccc3)OC(=O)[C@H]1[C@@H]2C(=O)Nc1nc2ccccc2s1 criterion met

Continue with CC1(C)C(=O)C(c2ccccc2)=C2CN3C(=O)N(CCc4ccccc4)C(=O)C3(Cc3ccc(C(F)(F)F)cc3)C=C21 (centres undefined) criterion met

Continue with O=C1C2C=CC(C(O)c3ccc4c(c3)OCO4)N(Nc3ccccc3)C2C(=O)N1c1ccccc1 (centres undefined) criterion met

Continue with COc1ccc([Si](C)(C)[C@@H]2[C@@H](CC(=O)N3Cc4ccccc4C[C@H]3CO)O[C@]3(C(=O)N(Cc4ccc(N5CCC5=O)cc4)c4ccccc43)[C@H]2C)cc1 criterion met

Continue with Cc1c(NC(=O)/C(C#N)=C/c2ccccc2Cl)c(=O)n(-c2ccccc2)n1C criterion not met

---

Experiment: MM1S myeloma cell viability, profiling panel, resazurin fluorescence, basal, 24 h, PK04 Diversity Set (AID 1174);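 note: MM1S multiple myeloma cell line; test concentration not given here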
Settings: higher = more signal, called active from +8 up or from −8 down
PROPERTY MEASURED: z-score
One number for each entry.

Some solved cases for reference:
RECORD SMILES	z-score
C[C@@]12COC[C@]13C=C(Br)[C@H](C2)[C@@]1(CO1)C3=O	-0.0295
[N-]=[N+]=NCc1ccccc1[C@H]1OC(c2ccc(OCCCO)cc2)=N[C@@]1(Cc1ccccc1)C(=O)NCCN1CCOCC1	-0.206
O=C(NCCN1CCOCC1)[C@@H]1c2ccccc2C(=O)N(Cc2ccccc2)[C@H]1c1ccc(CO)cc1	0.802

Take each entry in turn and give its z-score.
1. COCCOC(=O)N1C(=O)[C@@]2(c3cc(C#Cc4ccc(OC)cc4)ccc31)[C@H](C(=O)NC[C@H](O)c1ccccc1)[C@H]1C(=O)O[C@H](c3ccccc3)[C@H](c3ccccc3)N1[C@@H]2c1ccc(OCCO)cc1
2. COCCOC(=O)N1C(=O)[C@@]2(c3cc(C#CCC(C(=O)OC)C(=O)OC)ccc31)[C@H](c1ccc(O)cc1)N1[C@H](c3ccccc3)[C@H](c3ccccc3)OC(=O)[C@H]1[C@@H]2C(=O)NC[C@H](O)c1ccccc1
3. CCOC(=O)C[C@H]1[C@H](OC(=O)c2ccc(-c3ccccc3)cc2)[C@@H](NC(=O)CC(C)C)c2cc(OCCCO)ccc2N1C(=O)c1ccccc1
4. CCOC(=O)C1=CC[C@@H](c2ccccc2)N(S(=O)(=O)c2ccc(C)cc2)[C@H]1C=Cc1ccccc1
5. COCCOC(=O)N1C(=O)[C@@]2(c3cc(C#Cc4ccc(OC)cc4)ccc31)[C@H](c1ccc(OCCO)cc1)N1[C@H](c3ccccc3)[C@H](c3ccccc3)OC(=O)[C@H]1[C@@H]2C(=O)Nc1nc2ccccc2s1
6. C#C[C@@H](CC)O[Si](C#CCCCC#N)(C(C)C)C(C)C

0.0406
0.6
-0.281
-0.0664
-0.606
-0.651

---

Assay: inhibitors of hydroxyurea-induced Chk1 phosphorylation, primary screen, imaging, HeLa, phospho-Chk1 antibody, percent positive cells (AID 1186)
Conditions: hydroxyurea-induced phospho-Chk1 immunofluorescence imaging, higher = more signal
Would you mind labelling by z-score? At or over 0.07 is class 1, under is class 0.

RECORD SMILES	CLASSIFICATION
CN(C)CCCCCCNC(=O)[C@@H]1C[C@@H]2C(=O)N[C@@H](CCCCN)C(=O)N2[C@@H]1c1ccc(O)cc1	class 1
[N-]=[N+]=NCc1ccccc1C[C@]1(C(=O)N2CCOCC2)COC(c2ccc(OCCCO)cc2)=N1	class 0
C=C(COC)/C(=C/C[C@@H](OC(=O)c1ccncc1)c1ccccc1OCCO)c1cc(C(=O)OC)ccc1OC	class 1
COc1ccc([Si](C)(C)[C@@H]2[C@@H](CCn3cc([C@H](O)c4ccccc4)nn3)O[C@]3(C(=O)N(Cc4cccc(N5C(=O)c6cccc7cccc5c67)c4)c4ccccc43)[C@H]2C)cc1	class 0
CCOC(=O)C1=CC[C@@H](c2ccccc2)N(S(=O)(=O)c2ccc(C)cc2)[C@H]1C=Cc1ccccc1	class 0

Threshold query (z-score >= 0.07) on COCCCNC(=O)[C@@]1(Sc2ccc(C)cc2)CC(=O)N(C(C)C)[C@@H]1c1ccc(CO)cc1I class 1

---

Would you kindly list composite z-score for each of these compounds?
Target: Concanavalin-A (Canavalia ensiformis) (UniProt P02866)
Sequence (P02866 whole entry, looked up): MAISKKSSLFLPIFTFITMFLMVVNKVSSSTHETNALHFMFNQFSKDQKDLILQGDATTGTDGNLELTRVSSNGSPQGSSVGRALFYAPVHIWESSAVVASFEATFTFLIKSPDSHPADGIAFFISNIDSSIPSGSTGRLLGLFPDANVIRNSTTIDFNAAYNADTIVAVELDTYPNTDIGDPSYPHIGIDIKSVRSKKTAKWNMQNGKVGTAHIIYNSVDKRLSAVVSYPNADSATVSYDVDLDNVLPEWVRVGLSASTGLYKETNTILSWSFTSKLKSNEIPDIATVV
Assay: ConA small-molecule binders, primary screen, artefact control for SMM control protein annotation, biochemical, small-molecule microarray, Alexa647 label, 635 nm (AID 1127);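 note: z combines 667 nm emission intensity with signal-to-noise across three replicate slides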
Conditions: ConA-A647 binding fluorescence, higher = more signal

Some solved cases for reference:
COMPOUND	ENDPOINT RESULT
C=CCNC(=O)[C@H]1[C@@H]2C(=O)O[C@@H](c3ccccc3)[C@@H](c3ccccc3)N2[C@@H](c2ccc(OCCO)cc2)[C@]12C(=O)Nc1ccc(C#CCNC(N)=O)cc12	1.1
COc1ccc([Si](C)(C)[C@H]2[C@H](CCO)O[C@@]3(C(=O)N(Cc4ccc(N5C(=O)c6ccccc6Oc6ccccc65)cc4)c4ccccc43)[C@@H]2C)cc1	-0.352
C=C(/C(=C/C[C@@H](OC(=O)c1ccncc1)c1cccc(OCCO)c1)c1cnc2ccccc2c1)C(C)C	1.2

Below: the item to evaluate.
Lab note: need composite z-score for CCCCCN1CC=CC23O[C@@H]4/C=C\CCC(C)OC(=O)C4[C@H]2C(=O)N(CCCCCCO)[C@@H]3C1=O (some centres undefined) on Concanavalin-A (Canavalia ensiformis) (UniProt P02866), anyone have it? -0.296
